Reported values of IC50 for individual entries
- target: Estrogen receptor beta (Homo sapiens)
- Sequence (Q92731 whole entry): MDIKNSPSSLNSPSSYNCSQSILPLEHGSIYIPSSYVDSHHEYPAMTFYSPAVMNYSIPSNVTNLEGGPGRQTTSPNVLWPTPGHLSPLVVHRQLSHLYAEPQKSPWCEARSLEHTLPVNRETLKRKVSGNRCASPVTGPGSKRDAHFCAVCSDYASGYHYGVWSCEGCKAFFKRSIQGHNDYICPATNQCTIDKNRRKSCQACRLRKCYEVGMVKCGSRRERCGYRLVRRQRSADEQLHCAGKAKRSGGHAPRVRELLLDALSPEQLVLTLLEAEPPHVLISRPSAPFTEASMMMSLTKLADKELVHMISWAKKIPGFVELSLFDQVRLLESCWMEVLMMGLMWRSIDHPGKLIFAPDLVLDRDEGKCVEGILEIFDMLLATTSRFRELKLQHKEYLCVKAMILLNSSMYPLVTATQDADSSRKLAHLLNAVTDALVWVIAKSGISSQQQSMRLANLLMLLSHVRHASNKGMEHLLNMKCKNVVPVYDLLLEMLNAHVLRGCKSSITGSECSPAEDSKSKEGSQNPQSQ
- procedure details: ERβ–SRC-3 coactivator interaction inhibitors, confirmation, orthogonal assay, biochemical, ELISA, streptavidin-HRP readout (AID 1060)

>  <molecule>
CN(C)c1ncc(C2=C(Cl)C(=O)C(N3CCCC3)=C(Cl)C2=O)s1

>  <IC50>
20600 nM (not active)

$$$$
>  <molecule>
Nc1c(Cl)cc(Cl)cc1C(=O)OCC(=O)NC1CC1

>  <IC50>
< 23 nM (not active)

$$$$
>  <molecule>
O=C(Nc1cnn(C23CC4CC(CC(C4)C2)C3)c1)c1cnn2c(C(F)(F)F)cc(-c3ccco3)nc12

>  <IC50>
< 23 nM (not active)

$$$$
>  <molecule>
CC1CCCC(C)N1CC(=O)Nc1sc2c(c1C#N)CCCC2 (centres undefined)

>  <IC50>
37.2 nM (not active)

$$$$

Every entry's value here was drawn from ChEMBL document CHEMBL1201862.
